targetOfAssay: BRD3(2) (Homo sapiens, UniProt Q15059)
Sequence (Q15059 306-415 limits assumed): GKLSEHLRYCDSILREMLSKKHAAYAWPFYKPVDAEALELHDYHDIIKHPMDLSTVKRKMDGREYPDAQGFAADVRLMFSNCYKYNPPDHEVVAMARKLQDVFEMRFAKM
assayComment: Isothermal titration calorimetry, BRD3(2)
Type: binding
Design: 2 μM for the first bromodomain in BRD4 and 0.5 μM for the second bromodomain in BRD3
setupConditions: KD, ITC, BRD3(2), 15°C, reverse titration
propertyMeasured: Kd (µM)
The response must be a number in µM with no trailing unit.

Entry Cc1nnc2n1-c1sccc1C(c1ccccc1)=NC2(C)C ; Kd = 0.513

* * *

targetOfAssay: BRD2(2) (Homo sapiens)
Construct: the second as compared with the first bromodomain of these BRDs
Sequence (P25440 344-453 limits assumed): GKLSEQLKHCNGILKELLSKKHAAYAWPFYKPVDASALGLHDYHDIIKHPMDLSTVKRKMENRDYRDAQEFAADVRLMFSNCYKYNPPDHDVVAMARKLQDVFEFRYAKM
assayComment: Protein stability shift assay (thermal shift), BRD2(2)
Format: binding
setupConditions: 10 μM ligand
propertyMeasured: Thermal shift (ΔTm obs) BRD2(2)
Hey, just send me the number, nothing else.

Sample answers from the record:
                                   compound                 propertymeasured  recordedresult
0  COc1cc(OC)c2c(=O)[nH]c(-c3cc(C)c(OCCO)c(C)c3)nc2c1 [RVX-208, reference compound]  Thermal shift (ΔTm obs) BRD2(2)             4.0
1  Cc1nnc2n1-c1sccc1C(c1ccccc1)=NC2(C)C [MDCO-3770]  Thermal shift (ΔTm obs) BRD2(2)             0.0
2  Cc1nnc2n1-c1sccc1C(c1ccccc1)=NC2 [MDCO-3760]  Thermal shift (ΔTm obs) BRD2(2)             2.6

Continue with the next compound.
Kindly note the recorded Thermal shift (ΔTm obs) BRD2(2) for Cc1nnc2n1-c1sccc1C(c1ccc3c(c1)OCO3)=NC2 [MDCO-3783] , which is 1.8

* * *

targetOfAssay: UniProt O60885
assayComment: Protein stability shift assay (thermal shift), BRD4(1)
Assay type: binding
Design: the second as compared with the first bromodomain of these BRDs
setupConditions: 10 μM ligand
Reported Thermal shift (ΔTm obs) BRD4(1) values follow for various molecules
Give the figure by itself; no unit, no explanation.

                                   molecule  recordedresult
0  Cc1nnc2n1-c1sccc1C(c1ccccc1)=NC2(C)C [MDCO-3770]             3.3
1  COc1cc(OC)c2c(=O)[nH]c(-c3cc(C)c(OCCO)c(C)c3)nc2c1 [RVX-208, reference compound]             1.3

What the record says about Cc1nnc2n1-c1sccc1C(c1ccc3c(c1)OCO3)=NC2 [MDCO-3783] : Thermal shift (ΔTm obs) BRD4(1) is 2.4

The reported value for Cc1nnc2n1-c1sccc1C(c1ccccc1)=NC2 [MDCO-3760] in terms of Thermal shift (ΔTm obs) BRD4(1) is 2.7

* * *

targetOfAssay: CREBBP (Homo sapiens, UniProt Q92793)
Construct: Thermal shift (Δtm^obs) of human bromodomains in the presence of 10 μM compound
Sequence (Q92793 1085-1192 limits assumed): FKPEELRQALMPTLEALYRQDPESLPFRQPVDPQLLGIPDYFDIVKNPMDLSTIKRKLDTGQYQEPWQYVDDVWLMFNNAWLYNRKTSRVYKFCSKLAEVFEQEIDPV
assayComment: Protein stability shift assay (thermal shift), CREBBP
Type: binding
setupConditions: 10 μM ligand
propertyMeasured: Thermal shift (ΔTm obs) CREBBP

Some compounds with recorded Thermal shift (ΔTm obs) CREBBP:
In [3]: df
Out[3]:
                                   compound                propertymeasured  recordedresult
0  Cc1nnc2n1-c1sccc1C(c1ccc3c(c1)OCO3)=NC2 [MDCO-3783]  Thermal shift (ΔTm obs) CREBBP            −0.1
1  COc1cc(OC)c2c(=O)[nH]c(-c3cc(C)c(OCCO)c(C)c3)nc2c1 [RVX-208, reference compound]  Thermal shift (ΔTm obs) CREBBP            −0.2
2  Cc1nnc2n1-c1sccc1C(c1ccccc1)=NC2(C)C [MDCO-3770]  Thermal shift (ΔTm obs) CREBBP            −0.6

Form field, Thermal shift (ΔTm obs) CREBBP with CREBBP (Homo sapiens, UniProt Q92793), item Cc1nnc2n1-c1sccc1C(c1ccccc1)=NC2 [MDCO-3760] : −0.1
